biological target: pooled human IgG (human IgG1, 2, 3 and 4) (human); assay: cell-based or functional assay; note: test concentration or dose not given here
Field: Enzyme Activity Endpoint Assay: IgG. Provide a value for each of the binders that follow.
Answers are plain numbers, in ng/µL.

binder	endpoint	units label	measured number
PRT-409 (enzyme) MVTSVWTKGVTPPADFTQGEDVFHAPYVANQGWYDITKTFNGKDDLLCGAATAGNMLHWWFDQNKEYIEAYLKKHPEKQKIMFGDQELLDVRKAINTKGSQKNSELFNYFRDKAFPNLSARRLGVMPDLVLDMFINGYYLNVTKTQTTDVNRTYQEKDKRGGIFDAVFTRGVQSKLLTSRHDFKEKGLKEISDLIKQELTEGKALGLSHTYANVRINHVINLWGADFDSDGNLKAIYVTDSDSNASIGMKKYFVGVNSAGKVAISAKEIKEDNIGAQVLGLFTLSTGQDIWNQTN	Enzyme Activity Endpoint Assay: IgG	ng/µL	0

Now let's try a different one.
Entry PRT-417 (enzyme) MTITSVWTKGVTPPTPEDFRYNNEDVLHAPYVANQGWYDITKTFDGKDNLLCGAATAGNMLHWWFDQNKEEIERYLKKHPEKQKIIFNNQELFDVKAAIDTKDSQTNSKLFNYFRDKAFPNLSARQLGVMPDLVLDMFINGYYLNLGKTQSTDVNRPYQDKDKRGGIFDAVFTRGDQTTLLTARHDLKNKGLNEISDLIKQELTEGKALALSHTYANVRINHVINLWGADFDAEGELIAIYVTDSDANASIGMKKYFVGVNANGKVAISAKKIEGDNIGAQVLGLFTLSTGQDIWQKLS — recorded Enzyme Activity Endpoint Assay: IgG = 324

Reference source for all entries: patent US20250027068A1
